systemName: HPV-11 E1 helicase (Human papillomavirus 11, UniProt P04014)
Sequence (P04014 whole entry Q161E/R318A): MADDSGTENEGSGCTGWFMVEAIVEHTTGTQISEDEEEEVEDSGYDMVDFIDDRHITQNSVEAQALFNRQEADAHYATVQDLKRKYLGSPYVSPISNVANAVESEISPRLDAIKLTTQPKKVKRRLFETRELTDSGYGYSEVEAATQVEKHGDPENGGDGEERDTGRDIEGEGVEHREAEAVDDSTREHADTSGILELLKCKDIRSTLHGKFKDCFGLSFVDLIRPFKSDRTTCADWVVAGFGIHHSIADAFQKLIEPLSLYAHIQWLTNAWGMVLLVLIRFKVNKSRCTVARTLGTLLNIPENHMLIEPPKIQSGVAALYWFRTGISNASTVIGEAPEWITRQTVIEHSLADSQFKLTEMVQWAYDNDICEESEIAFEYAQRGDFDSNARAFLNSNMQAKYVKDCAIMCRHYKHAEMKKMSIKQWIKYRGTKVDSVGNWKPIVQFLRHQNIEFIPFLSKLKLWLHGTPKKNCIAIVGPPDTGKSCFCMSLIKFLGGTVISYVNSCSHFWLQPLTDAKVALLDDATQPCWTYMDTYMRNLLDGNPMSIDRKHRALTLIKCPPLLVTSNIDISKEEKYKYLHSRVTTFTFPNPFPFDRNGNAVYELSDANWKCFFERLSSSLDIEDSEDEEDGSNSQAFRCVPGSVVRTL
test: E1 helicase SPA high-throughput assay, inhibition (IC50 curves)
pIC50: −log10 of the molar value.
assayMetric: pIC50

I am curious: what pIC50 value has been reported for CC[n+]1c(-c2ccccc2)c2cc(N)ccc2c2ccc(N)cc21 [ethidium bromide] ?
~5.40
